Value source: ChEMBL document CHEMBL3430912

test system: Trypanosoma cruzi; experiment: GSK_TCAKS: pIC50 H2C9 Imaging: H9c2 Host Cardiomyocytes. […] Cells were then washed once with PBS before infection. T. cruzi trypomastigotes, collected at days 5 to 8 after infection from LLC-MK2 parasite infected cultures, were allowed to swim out for 4h at 37C from a centrifuged pellet (2,500 rpm/10 min/room temperature). Trypomastigotes were then collected and counted in a CASY Cell Counter. Trypomastigotes, in supplemented DMEM, were added to H9c2 cultures in a multiplicity of infection of 1 and incubated for 18 h. Cells were washed once with PBS before incubation of the infected H9c2 monolayer with trypsin (Life-Technologies) to detach cells from the flask. Cells were counted in a CASY Cell Counter using a 150 um capillary and their density set at 5 * 10^4 cells per mL in supplemented assay DMEM. Infected H9c2 were dispensed into 384-well poly-lysine coated assay plates at 50uL per well using a Multidrop Combi dispenser. After seeding them, the plates were incubated at 37C, 5% CO2 for 72h. Cultures were then fixed and stained by addition of 50 uL of a solution containing 8% formaldehyde and 4 uM DRAQ5 DNA dye (BioStatus, UK) per well. […] Five images were collected per well for reliable statistical analysis. Automated image analysis was performed with a script developed on Acapella High Content Imaging and Analysis Software (PerkinElmer). Output: Number of H9c2 Host Cardiomyocytes nuclei to determine drug-related cytotoxicity.; format: functional, organism-based, Rattus norvegicus; settings: H9c2, 4 h
experimental.endpoint: IC50 (µM)
Use µM as the unit, but write only the number.

Q. Give its IC50 value. Item: CNc1nc(C)nc(N2CCc3cc(C(=O)NCc4ccc(-c5cc[nH]n5)cc4Cl)ccc32)n1
A. 20

Q. Here is the next molecule: CN(C)S(=O)(=O)c1cccc(C(=O)Nc2nc(-c3ccccn3)cs2)c1
A. 7.94
